Readings of TGI for the listed compounds
system: HOP-62 NSCLC; assay: NCI tumour cell line growth inhibition, 48 h

- COMPOUND: "O=C(CN(/C=C/C(=O)C(F)(F)F)c1ccccc1)c1ccc(F)cc1"
  ASSAYED TARGET: "HOP-62 NSCLC"
  TGI: "> 100 µM"
- COMPOUND: "O=c1[nH]c(=O)n(C2CC(O)C(O)C(CO)O2)cc1F (stereo not drawn)"
  ASSAYED TARGET: "HOP-62 NSCLC"
  TGI: "> 100 µM"

Please report TGI for the following compound: COc1cccc(/C=N/[N-]C(N)=O)c1[O-].[OH3+].[Pd+2] > 100 µM

----------
# TGI values compiled below
system: OVCAR-5 ovarian; assay: NCI tumour cell line growth inhibition, 48 h
Record the value in µM, omitting the unit from your answer.

Below: 2 compounds and their reported TGI.
- SMILES INPUT: "CC(=O)O[C@H]1C[C@H]2[C@@H]([C@H](OC(C)=O)C[C@@H]3CC4(CC[C@@]32C)OOC2(CCCCC2)OO4)[C@@H]2CC[C@H]([C@H](C)CCC(=O)O)[C@@]12C"
  TGI [µM]: 29.8
- SMILES INPUT: "O=C1CC(=O)NC(=NN2C(=O)/C(=C/c3ccc(Cl)cc3)N=C2c2ccccc2)N1"
  TGI [µM]: 30.2

// next entry
Give the reported TGI for this compound. CCCCOc1ccc(S(=O)(=O)/N=C(\N)Nc2ccc(Cl)cc2)cc1 33.2

Just for reference, PubChem BioAssay (NCI) is where these values come from.
